Type: in vivo, human
RECORDED CONDITIONS: human, whole blood, po, Tmax, median, with RTV
MEASURED PROPERTY: Tmax

[[record]]
compound = "C=CC(=O)N(C)CCOc1c(N)ncnc1-c1cc(F)cc(NC(=O)c2ccc(C3CC3)cc2F)c1C [remibrutinib]"
result = "43.2 min"


* * *

Type: in vivo, human
RECORDED CONDITIONS: human, whole blood, po, 50 mg, Tmax, median, remibrutinib alone
MEASURED PROPERTY: Tmax (h)

[[record]]
smiles = "C=CC(=O)N(C)CCOc1c(N)ncnc1-c1cc(F)cc(NC(=O)c2ccc(C3CC3)cc2F)c1C"
readout_number = 1

